# Tested on: RXRa homodimer (NR concentration 180 nM)
# method.notes: PBM binding z-score (relative to random genomic background probes); higher = stronger binding; sequences stand for … in GC…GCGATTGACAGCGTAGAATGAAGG
assay.metric: PBM binding z-score

For the sequence shown here, CCTACTGGGCCAAAAAGGTCACTGATGCCGATAA , give the reported PBM binding z-score.
4.83

For the sequence shown here, ATCGAAAGGTCGACGGTGAGTATACCCACCCGAA , give the reported PBM binding z-score.
4.27

For the sequence shown here, CCTTACGGGTCACTGACAGGTTCTAGCATTTGGA , give the reported PBM binding z-score.
4.61

For the sequence shown here, TCTTATAGGTAATACAGGTGAAAGTCGGCATCTA , give the reported PBM binding z-score.
1.18

For the sequence shown here, ATATGTAGGTTACATCCGGGTCATTCCGGCTATG , give the reported PBM binding z-score.
2.92

For the sequence shown here, TCTATTAGTTGATTAGGGCAACCGTAACAGCGGA , give the reported PBM binding z-score.
0.558

For the sequence shown here, TCACATAGGTAATACAGGTGAAAGTCGGCATCTA , give the reported PBM binding z-score.
1.14

For the sequence shown here, TGATTGAGGTTAAAGATCAGGGAACGTGGCGTCG , give the reported PBM binding z-score.
3.67

For the sequence shown here, TCGAGTATGTTACCAATGGGGCATTCAGCTTTCT , give the reported PBM binding z-score.
-0.0794

For the sequence shown here, AGTCAAAGTTAAGGACGAGGTAACGTAAAGCACG , give the reported PBM binding z-score.
0.474

For the sequence shown here, CAAACTAGGTCACCGGAAGGGCAAAGTCCGCATG , give the reported PBM binding z-score.
3.68

For the sequence shown here, CCGACTGTGGCAGAAAGGTTACCATACCATCCGG , give the reported PBM binding z-score.
1.47

For the sequence shown here, CCGAGTAGGTTAAGGGGCATTCAGGCAACGGTGA , give the reported PBM binding z-score.
1.43

For the sequence shown here, CGTCCAAGGTCAGCAGGTCAGTCAAAGCGACGTG , give the reported PBM binding z-score.
4.85

For the sequence shown here, CAAACTGGGTCACAGAGGTCAAAGTCCGTGCGTA , give the reported PBM binding z-score.
7.99

----------
# Tested on: THRa:RXRa (NR concentration 90 nM, RXRa partner concentration 90 nM)
# method.notes: PBM binding z-score (relative to random genomic background probes); higher = stronger binding; sequences stand for … in GC…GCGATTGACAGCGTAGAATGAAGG
Entries get a class label from measured PBM binding z-score. See ranges: group A: < 1; group B: ≥ 1 and < 3; group C: ≥ 3

Record excerpt, results attached:
polymer.sequence	assigned.category
CTTACTGGGCCATCAGGTCATTGATATCAACGTT	group C
ACTAGCAGGCCAAGGTTCACTCAAGATTAGTCCG	group B
ATACCAAGGTGATGGTGAGGTCGTTGATACTAAC	group C
ATCTCTAGGTAACCAACTTCAGTGAATGCCGAAC	group A
CCGACTGGGGCAGAAAGGTGACCATACCATCCGG	group A
CTCGAAAGGTCGTGCTCAGGTGAATATACCAAAC	group C
CAGCCTAGGTCAGAGCCAGTATAGGAGGAACGTT	group B
TCTCGCAGGACACGAAGGTCAGAGCTTTCCAGAG	group B
ATCTCTGGGTAAAAGTTCAGTGAATCCCGAGGAT	group A
TCATAGAGGTAATACAGGTGAAAGTCGGCATCTA	group B

Which PBM binding z-score band matches CGTCCAAGGTCAATGCTAAGTCAGTGAAAGCATT ?
group C

Which PBM binding z-score band matches AATATAGGGTCACTAGGCCAGAGTAGGTACGAAT ?
group C

----------
sequences and their reported PBM binding z-score
# System: VDR homodimer (NR concentration 270 nM)
# method.notes: PBM binding z-score (relative to random genomic background probes); higher = stronger binding; sequences stand for … in GC…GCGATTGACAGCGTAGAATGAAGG
// response body must contain only the number

Reference set (2 entries):
polymer.sequence	target.entity	assay.metric	observed
ATATGTAGGTTACATCCGGGTCATTTAGGCTATG	VDR homodimer (NR concentration 270 nM)	PBM binding z-score	2.98
AGCCAAAGTTCATCTAGGTAACGTAAGATATGCT	VDR homodimer (NR concentration 270 nM)	PBM binding z-score	5.28

For the sequence shown here, TTACCACGGTGAAGGTCGTTGATCCCTCTGTAGA , give the reported PBM binding z-score.
0.451

For the sequence shown here, GCTTACGGGTCAAAGGTTATAGCATGAATAGAAT , give the reported PBM binding z-score.
1.58

For the sequence shown here, TCTATTAGTTGATTCGGGCAACCGAAACAGCGGA , give the reported PBM binding z-score.
0.228

For the sequence shown here, ATCGAAAGGTCGAAGGTGATTATACCCACCCGAA , give the reported PBM binding z-score.
0.477

For the sequence shown here, CGTCCAAGGTCAATGCTAGGTTAGTGAAAGCATT , give the reported PBM binding z-score.
2.58

For the sequence shown here, CTCGAAACGTCGGTTGAGGTGAGTATACGGATAA , give the reported PBM binding z-score.
-0.242

----------
# Test system: PPARa:RXRa (NR concentration 270 nM, RXRa partner concentration 90 nM)
# method.notes: PBM binding z-score (relative to random genomic background probes); higher = stronger binding; sequences stand for … in GC…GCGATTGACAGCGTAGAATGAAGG
Short version: PBM binding z-score at least 3 is criterion met, less is criterion not met.

Record excerpt, results attached:
polymer.sequence	target.entity	assigned.category
ACTCGGAGGACAAAGGTCAGAGGTACGCCAGTGA	PPARa:RXRa (NR concentration 270 nM, RXRa partner concentration 90 nM)	criterion met
GATACAGGGTCTAGGCCAGAGTACGCGTATTGAT	PPARa:RXRa (NR concentration 270 nM, RXRa partner concentration 90 nM)	criterion not met
TGAATGAGGTTATAAGATCAGGGTACGTTGCAAA	PPARa:RXRa (NR concentration 270 nM, RXRa partner concentration 90 nM)	criterion not met
TAGCCGAGGTCATTGGGCCAGTATAGTACGCATC	PPARa:RXRa (NR concentration 270 nM, RXRa partner concentration 90 nM)	criterion met

// inclusive: PBM binding z-score at least 3? input: CCTGCTTGGTCAATGGTCAGCTAAAGCAGCTCGC
criterion not met

// inclusive: PBM binding z-score at least 3? input: ATATGTAAGTTACATCCGGGTCATTCAGGCTATG
criterion not met

// inclusive: PBM binding z-score at least 3? input: CTCGAAAGGTCGGTTGAGGTGAGTCTACGGATAA
criterion not met

// inclusive: PBM binding z-score at least 3? input: CCGACTGGGGAATAAGGTTACCATAAGCCAGCCC
criterion not met

// inclusive: PBM binding z-score at least 3? input: CTTACTGGGCCAAAAAGGTCATTGATGCCGATAA
criterion met

// inclusive: PBM binding z-score at least 3? input: CCGACTGGGGCAAGCTTACCATAACGCACAGCCA
criterion not met

// inclusive: PBM binding z-score at least 3? input: ATCTCTAGGTAACCAGTTCAGTGAAAGAGAGGAC
criterion not met

----------
# Tested on: THRa homodimer (NR concentration 90 nM)
# method.notes: PBM binding z-score (relative to random genomic background probes); higher = stronger binding; sequences stand for … in GC…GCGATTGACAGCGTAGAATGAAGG
assay.metric: PBM binding z-score
// response body must contain only the number

For the sequence shown here, AGAATGAGGATATACGTAGATCAGGGAAGAAAGT , give the reported PBM binding z-score.
-0.039

For the sequence shown here, GATACAGAGTCAAGGCCAGAGTACGCGTATTGAT , give the reported PBM binding z-score.
-0.438

For the sequence shown here, CGAACTAGGTCAGAACAGGACAGGGAAGGATGAT , give the reported PBM binding z-score.
0.578

For the sequence shown here, TATACAGGGGCAAAGGCCAGAGTACGAATGTCGA , give the reported PBM binding z-score.
-0.328

For the sequence shown here, GTACCAAGGAGAATAGGTCGTTGATGAGTAGGCG , give the reported PBM binding z-score.
-0.986

For the sequence shown here, TCAGACAGGTGAAGGTAGCTCAGGTACGCAGTCG , give the reported PBM binding z-score.
0.148

For the sequence shown here, CCTACTGGGCCATTCAGAGCTCATTGATCATATG , give the reported PBM binding z-score.
-0.449

----------
# Tested on: PPARg:RXRa 90nM:30nM, anti-RXR (NR concentration 90 nM, RXRa partner concentration 30 nM)
# method.notes: PBM binding z-score (relative to random genomic background probes); higher = stronger binding; sequences stand for … in GC…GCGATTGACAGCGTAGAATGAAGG
sequences and their reported PBM binding z-score

polymer.sequence	target.entity	PBM binding z-score
ACTATGAGTTGAGACGAGGGCAACCGATAGGTTG	PPARg:RXRa 90nM:30nM, anti-RXR (NR concentration 90 nM, RXRa partner concentration 30 nM)	0.0976
AGAATGCGGTTATACGTAGATCAGGGAAGAAAGT	PPARg:RXRa 90nM:30nM, anti-RXR (NR concentration 90 nM, RXRa partner concentration 30 nM)	-0.139
ACTATTAATTGACTTAGGGCAACCGATACGACGC	PPARg:RXRa 90nM:30nM, anti-RXR (NR concentration 90 nM, RXRa partner concentration 30 nM)	0.814
TCTTGTAGATCAAGCAGATTAAGAAAGCCTGAGT	PPARg:RXRa 90nM:30nM, anti-RXR (NR concentration 90 nM, RXRa partner concentration 30 nM)	2.02
TCAGACAGGTGAAGGTTACTCAGGTACGCAGTCG	PPARg:RXRa 90nM:30nM, anti-RXR (NR concentration 90 nM, RXRa partner concentration 30 nM)	2.81

For the sequence shown here, GCTTGTAGATGAAGGTTAAGAAAGACTAAGCTAA , give the reported PBM binding z-score.
0.254

For the sequence shown here, CCTACTGGGCTACGAAAGGTCATTGATTCAGTGA , give the reported PBM binding z-score.
3.64

For the sequence shown here, CAAATTAGGTCACAGAGGTCAAAGTCCGTGCGTA , give the reported PBM binding z-score.
8.29

For the sequence shown here, CGAACGAGGGCATGAGTTGCTAGCAAATGCCGAT , give the reported PBM binding z-score.
0.931

For the sequence shown here, CCTCGGAGGACAAGAGGAGGTCAGAGCTGCCAGA , give the reported PBM binding z-score.
-0.28

For the sequence shown here, ATATGTAGGTTATCGGGGCATTCAGTTTGCGCAT , give the reported PBM binding z-score.
4.06

For the sequence shown here, TCATATAGGTAAGAGGTGAAAGTCGGTGTGGTAA , give the reported PBM binding z-score.
7.94
